Measured pIC50 by item
Test system: FM3A
Assay explanation: Antiproliferative activity against mouse FM3A cells after 2 days by coulter counter method
Type: functional, cell-based
Settings: 48 h
pIC50: −log10 of the molar value.
Value kind: pIC50

In [3]: df
Out[3]:
                                smiles_input  inequality_sign  endpoint_result
 0      Nc1nc(Nc2ccc(Cl)cc2)sc1C(=O)c1ccccc1                <             5.00
 1       Nc1nc(Nc2ccc(F)cc2)sc1C(=O)c1ccccc1                <             5.00
 2  COc1ccc(Nc2nc(N)c(C(=O)c3cc(OC)c(OC)c(OC)c3)s2)cc1                =             5.66
 3  COc1ccc(Nc2nc(N)c(C(=O)c3ccc([N+](=O)[O-])cc3)s2)cc1                =             6.51
 4  COc1ccc(Nc2nc(N)c(C(=O)c3ccc(Br)cc3)s2)cc1                =             7.00
 5  COc1cc(C(=O)c2sc(Nc3ccc(Cl)cc3)nc2N)cc(OC)c1OC                =             6.38
 6  COc1cc(C(=O)c2sc(Nc3ccccc3)nc2N)cc(OC)c1OC                =             7.64
 7        COc1ccccc1C(=O)c1sc(Nc2ccccc2)nc1N                =             5.96
 8      COc1cccc(C(=O)c2sc(Nc3ccccc3)nc2N)c1                =             5.21
 9  COc1cc(C(=O)c2sc(Nc3ccc(F)cc3)nc2N)cc(OC)c1OC                =             7.24
10  COc1ccc(Nc2nc(N)c(C(=O)c3ccc(Cl)cc3)s2)cc1                =             7.23
11  COc1cc(C(=O)c2sc(Nc3ccc(C)cc3)nc2N)cc(OC)c1OC                =             7.82
12  COc1cccc(Nc2nc(N)c(C(=O)c3cc(OC)c(OC)c(OC)c3)s2)c1                =             5.70
13  COc1ccc(/N=c2/[nH]c(N)c(C(=O)c3ccc(OC)cc3)s2)cc1                =             6.20
14     Cc1ccc(Nc2nc(N)c(C(=O)c3ccccc3)s2)cc1                =             5.82
15  COc1ccc(Nc2nc(N)c(C(=O)c3ccccc3OC)s2)cc1                =             7.28
16   COc1ccc(C(=O)c2sc(Nc3ccc(F)cc3)nc2N)cc1                <             5.00
17    COc1ccc(Nc2nc(N)c(C(=O)c3ccccc3)s2)cc1                =             6.14
18  COc1ccc(Nc2nc(N)c(C(=O)c3cccc(OC)c3)s2)cc1                =             7.30
19  COc1ccc(Nc2nc(N)c(C(=O)c3ccc(OC)c(OC)c3)s2)cc1                =             7.15
20    COc1cccc(Nc2nc(N)c(C(=O)c3ccccc3)s2)c1                =             5.30
21    COc1ccc(C(=O)c2sc(Nc3ccccc3)nc2N)cc1OC                <             5.00
22      COc1ccc(C(=O)c2sc(Nc3ccccc3)nc2N)cc1                <             5.00
